- system: Human PDE4A3 (Homo sapiens (Human), UniProt P27815)
- Sequence (P27815 other isoform, or with tags, fused parts or gaps): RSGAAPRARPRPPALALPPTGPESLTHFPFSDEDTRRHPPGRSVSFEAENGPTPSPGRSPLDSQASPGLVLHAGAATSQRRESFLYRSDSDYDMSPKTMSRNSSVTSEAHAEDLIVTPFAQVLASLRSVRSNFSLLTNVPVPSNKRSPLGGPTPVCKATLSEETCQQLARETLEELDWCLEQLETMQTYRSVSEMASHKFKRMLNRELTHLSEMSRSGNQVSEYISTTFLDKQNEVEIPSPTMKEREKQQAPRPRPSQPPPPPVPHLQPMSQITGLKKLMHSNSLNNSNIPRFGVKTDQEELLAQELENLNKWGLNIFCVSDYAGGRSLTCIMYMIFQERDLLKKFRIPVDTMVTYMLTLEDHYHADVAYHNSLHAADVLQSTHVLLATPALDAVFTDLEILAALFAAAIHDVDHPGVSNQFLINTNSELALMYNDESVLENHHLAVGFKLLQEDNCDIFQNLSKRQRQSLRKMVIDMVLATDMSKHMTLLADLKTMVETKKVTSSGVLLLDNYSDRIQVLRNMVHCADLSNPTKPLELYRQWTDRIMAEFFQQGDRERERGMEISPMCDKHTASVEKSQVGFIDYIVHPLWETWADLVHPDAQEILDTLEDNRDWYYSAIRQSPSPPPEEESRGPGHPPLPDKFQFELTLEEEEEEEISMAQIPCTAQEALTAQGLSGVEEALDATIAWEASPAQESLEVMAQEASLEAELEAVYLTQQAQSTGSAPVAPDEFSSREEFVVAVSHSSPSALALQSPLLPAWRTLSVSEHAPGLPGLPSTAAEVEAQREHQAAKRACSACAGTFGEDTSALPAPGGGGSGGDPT
- experimental.protocol: PDE4A3 Scintillation Proximity Assay (SPA), inhibition of enzyme activity
- Type: biochemical
- measurement.setup: Table 9, geometric mean of 2-9 determinations unless otherwise indicated, read-out: Human PDE4A FL
Classification field. Basis: IC50. Definitions: class 1 (below 3 nM), class 2 (3 nM to below 10 nM), class 3 (10 nM or more)

Worked examples follow.
compound: Cc1ccc(C#N)cc1-c1c2n(c3cccnc13)CCN(C1CC1)C2=O
label.value: class 3
--
compound: O=C1c2c(-c3ccc(Cl)cc3)c3ncccc3n2CCN1c1ncccn1
label.value: class 3

Data request: Record O=C1c2c(-c3ccc(Cl)c(F)c3)c3ncccc3n2CCN1c1ncccn1 — which class?
Data returned: class 3

Data request: Record O=C1c2c(-c3cncnc3)c3ncccc3n2CCN1C1CC1 — which class?
Data returned: class 3

----------
- system: Human PDE4C1 (Homo sapiens (Human))
- experimental.protocol: PDE4C1 Scintillation Proximity Assay (SPA), inhibition of enzyme activity
- Assay type: biochemical
- measurement.setup: Table 9, geometric mean of 2-9 determinations unless otherwise indicated, read-out: Human PDE4C FL
measurement.kind: log10 of IC50 (log10 of the value in nM)
Record value = log10 of IC50 given in nM.

// returns log10 of IC50 for O=C1c2c(-c3ccc(Cl)cc3F)c3ncccc3n2CCN1C1CC1 with Human PDE4C1 (Homo sapiens (Human)); value = 0.46

// returns log10 of IC50 for N#Cc1ccc(-c2c3n(c4cccnc24)CCN(C2CC2)C3=O)cn1 with Human PDE4C1 (Homo sapiens (Human)); value = 1.17

// returns log10 of IC50 for Cc1ccc(-c2c3ncccc3n3ccn(C4CC4)c(=O)c23)c(C)c1 with Human PDE4C1 (Homo sapiens (Human)); value = 1.22

// returns log10 of IC50 for Cc1ccc(-c2c3n(c4cccnc24)CCN(C2CC2)C3=O)cc1C with Human PDE4C1 (Homo sapiens (Human)); value = 1.05

// returns log10 of IC50 for Cc1cc(-c2c3n(c4cccnc24)CCN(C2CC2)C3=O)ccc1F with Human PDE4C1 (Homo sapiens (Human)); value = 0.52

// returns log10 of IC50 for Cc1cc(C#N)ccc1-c1c2n(c3cccnc13)CCN(C1CC1)C2=O with Human PDE4C1 (Homo sapiens (Human)); value = 0.98

// returns log10 of IC50 for O=C1c2c(-c3cncc(Cl)c3)c3ncccc3n2CCN1C1CC1 with Human PDE4C1 (Homo sapiens (Human)); value = 2.84

// returns log10 of IC50 for O=C1c2c(-c3ccc(Cl)c(F)c3)c3nccnc3n2CCN1C1CC1 with Human PDE4C1 (Homo sapiens (Human)); value = 1.14

----------
- system: human PDE4D3 (Homo sapiens (Human), UniProt Q08499)
- Sequence (Q08499 186-808): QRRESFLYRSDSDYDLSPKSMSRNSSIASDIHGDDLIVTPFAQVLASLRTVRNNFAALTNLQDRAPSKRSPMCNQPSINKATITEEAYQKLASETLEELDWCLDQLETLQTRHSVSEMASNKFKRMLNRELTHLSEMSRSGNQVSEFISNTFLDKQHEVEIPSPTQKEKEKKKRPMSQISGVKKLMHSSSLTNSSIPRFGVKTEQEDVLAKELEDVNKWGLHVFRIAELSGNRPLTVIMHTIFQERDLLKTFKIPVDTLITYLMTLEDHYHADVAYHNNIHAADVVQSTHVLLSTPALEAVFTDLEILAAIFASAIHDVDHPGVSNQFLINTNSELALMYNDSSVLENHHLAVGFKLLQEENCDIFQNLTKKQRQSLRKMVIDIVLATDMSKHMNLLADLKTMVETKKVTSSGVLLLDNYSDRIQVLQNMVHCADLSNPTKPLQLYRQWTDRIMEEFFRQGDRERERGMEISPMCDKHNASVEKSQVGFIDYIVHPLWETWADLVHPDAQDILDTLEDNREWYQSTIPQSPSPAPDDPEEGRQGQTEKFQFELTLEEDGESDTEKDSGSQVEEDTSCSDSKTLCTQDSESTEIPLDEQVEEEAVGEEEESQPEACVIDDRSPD
- experimental.protocol: PDE4D3 Scintillation Proximity Assay (SPA), inhibition of enzyme activity
- Type: biochemical
- measurement.setup: Table 9, geometric mean of 2-9 determinations unless otherwise indicated, read-out: Human PDE4D FL
Entries annotated with measured log10 IC50
Record value = log10 of IC50 given in nM.

Recorded log10 IC50, per entry:
molecule: O=C1c2c(-c3ccc4ncnn4c3)c3ncccc3n2CCN1C1CC1 [Example 58]
test.value: 2.80
--
molecule: O=C1c2c(-c3ccc(Cl)cc3)c3ncccc3n2C[C@@H]2CCCN12 [Example 52]
test.value: 3.05
--
molecule: O=C1c2c(-c3ccc(Cl)cc3)c3ncncc3n2CCN1C1CC1 [Example 25]
test.value: 3.25
--
molecule: O=C1c2c(-c3ccc4c(c3)CCO4)c3ncccc3n2CCN1C1CC1 [Example 35]
test.value: 2.15
--
molecule: Cc1cc(-c2c3n(c4cccnc24)CCN(C2CC2)C3=O)ccc1F [Example 37]
test.value: 1.99

Consider O=C1c2c(-c3cncnc3)c3ncccc3n2CCN1C1CC1 [Example 55] . Its measured log10 IC50 is 3.57

Consider N#Cc1cc(-c2c3n(c4cccnc24)CCN(C2CC2)C3=O)ccc1Cl [Example 34] . Its measured log10 IC50 is 1.37

Consider Cc1cc(F)ccc1-c1c2n(c3cccnc13)CCN(C1CC1)C2=O [Example 49] . Its measured log10 IC50 is 2.60

Consider O=C1c2c(-c3ccc(F)cc3F)c3ncccc3n2CCN1C1CC1 [Example 38] . Its measured log10 IC50 is 2.76

----------
- system: human PDE4D3 (Homo sapiens (Human), UniProt Q08499)
- experimental.protocol: PDE4D3 Scintillation Proximity Assay (SPA), inhibition of enzyme activity
- Type: biochemical
- measurement.setup: Table 9, geometric mean of 2-9 determinations unless otherwise indicated, read-out: Human PDE4D FL
Entries annotated with measured IC50

compound: COc1c(F)cc(-c2c3n(c4nccnc24)CCN(C2CC2)C3=O)cc1F
IC50: 290 nM

compound: O=C1c2c(-c3ccc(F)cn3)c3ncccc3n2CCN1C1CC1
IC50: > 30000 nM

compound: COc1ccc(-c2c3n(c4cccnc24)CCN(C2CC2)C3=O)cc1F
IC50: 281 nM

Consider O=C1c2c(-c3cccc(F)c3)c3ncccc3n2CCN1C1CC1 . Its measured IC50 is 130 nM

Consider C[C@@H]1Cn2c(c(-c3ccc(Cl)cc3)c3ncccc32)C(=O)N1C1CC1 . Its measured IC50 is 768 nM

Consider O=C1c2c(-c3ccc(Cl)c(F)c3)c3ncccc3n2CCN1c1ncccn1 . Its measured IC50 is 660 nM

----------
- system: Human PDE4B1 (Homo sapiens (Human), UniProt Q07343, S133E/S654A/S659A/S661A)
- Sequence (Q07343 122-736 S133E/S654A/S659A/S661A): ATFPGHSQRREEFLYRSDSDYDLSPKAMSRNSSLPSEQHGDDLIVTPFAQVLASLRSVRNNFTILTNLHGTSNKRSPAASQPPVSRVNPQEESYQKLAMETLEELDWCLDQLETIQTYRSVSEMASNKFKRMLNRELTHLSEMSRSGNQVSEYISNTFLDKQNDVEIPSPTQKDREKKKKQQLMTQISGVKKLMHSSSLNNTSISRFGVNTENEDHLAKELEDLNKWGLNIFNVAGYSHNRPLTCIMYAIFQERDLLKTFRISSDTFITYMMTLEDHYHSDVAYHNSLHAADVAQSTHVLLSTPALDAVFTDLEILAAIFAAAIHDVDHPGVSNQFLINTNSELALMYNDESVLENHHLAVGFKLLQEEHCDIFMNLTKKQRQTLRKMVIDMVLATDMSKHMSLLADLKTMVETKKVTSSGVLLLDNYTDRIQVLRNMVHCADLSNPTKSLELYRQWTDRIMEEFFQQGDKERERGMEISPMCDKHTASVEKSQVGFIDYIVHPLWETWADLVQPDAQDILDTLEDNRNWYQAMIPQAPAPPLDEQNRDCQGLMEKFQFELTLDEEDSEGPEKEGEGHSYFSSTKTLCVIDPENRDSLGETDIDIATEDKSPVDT
- experimental.protocol: PDE4B1 Scintillation Proximity Assay (SPA), inhibition of enzyme activity
- Format: biochemical
- measurement.setup: Table 10, geometric mean of 2-9 determinations unless otherwise indicated, read-out: Human PDE4B FL
pIC50: −log10 of the molar value.
Classification field. Basis: pIC50. Definitions: low range: < 6; mid range: ≥ 6 and < 7; high range: ≥ 7

structure.smiles: Cc1nc(-c2c3n(c4cccnc24)CCN(C2CC2)C3=O)cs1
label.value: low range
//
structure.smiles: O=C1c2c(-n3cccn3)c3ncccc3n2CCN1C1CC1
label.value: low range
//
structure.smiles: Cn1ncc(Cl)c1-c1c2n(c3cccnc13)CCN(C1CC1)C2=O
label.value: low range
//
structure.smiles: CCCc1cnc(N2CCn3c(c(-c4ccc(Cl)cc4)c4ncccc43)C2=O)nc1
label.value: low range
//
structure.smiles: Cc1ccc(-c2c3n(c4nccnc24)CCN(C2CC2)C3=O)cn1
label.value: low range
//
structure.smiles: Cc1csc(-c2c3n(c4cccnc24)CCN(C2CC2)C3=O)n1
label.value: low range

Data request: Record CN(C)S(=O)(=O)c1cccc(-c2c3n(c4cccnc24)CCN(C2CC2)C3=O)c1 — which class?
Data returned: mid range

Data request: Record CC(=O)N1CCn2c(c(-c3ccc(Cl)cc3)c3ncccc32)C1=O — which class?
Data returned: high range

Data request: Record CS(=O)(=O)N1CCn2c(c(-c3ccc(Cl)cc3)c3ncccc32)C1=O — which class?
Data returned: mid range

Data request: Record O=C1c2c(C3CCCC3)c3ncccc3n2CCN1C1CC1 — which class?
Data returned: high range

Data request: Record COc1ncc(-c2c3n(c4cncnc24)CCN(C2CC2)C3=O)cn1 — which class?
Data returned: low range

Data request: Record Cn1nc(-c2c3n(c4cccnc24)CCN(C2CC2)C3=O)nc1C(F)F — which class?
Data returned: low range

----------
Entries annotated with measured IC50
- system: Human PDE4A3 (Homo sapiens (Human), UniProt P27815)
- experimental.protocol: PDE4A3 Scintillation Proximity Assay (SPA), inhibition of enzyme activity
- Type: biochemical
- measurement.setup: Table 9, geometric mean of 2-9 determinations unless otherwise indicated, read-out: Human PDE4A FL
Kindly answer with a numeric value in nM, unit omitted.

Recorded IC50, per entry:
molecule: O=C1c2c(-c3ccc(Cl)cc3)c3ncccc3n2CC2CCN12 (single isomer, unassigned) [Example 69]
IC50, nM: 8.87

molecule: Cc1cc(C#N)ccc1-c1c2n(c3cccnc13)CCN(C1CC1)C2=O [Example 50]
IC50, nM: 2.99

molecule: Cc1cc(C#N)c(F)cc1-c1c2c(n3c1C(=O)N(C1CC1)CC3)CCCO2 [Example 16]
IC50, nM: 1.57

molecule: O=C1c2c(-c3cnc4ccoc4c3)c3ncccc3n2CCN1C1CC1 [Example 64]
IC50, nM: 3.56

Consider N#Cc1ccc(-c2c3ncccc3n3ccn(C4CC4)c(=O)c23)cc1 [Example 70] . Its measured IC50 is 2.8

----------
- system: Human PDE4C1 (Homo sapiens (Human), UniProt Q08493)
- Sequence (Q08493 2-712): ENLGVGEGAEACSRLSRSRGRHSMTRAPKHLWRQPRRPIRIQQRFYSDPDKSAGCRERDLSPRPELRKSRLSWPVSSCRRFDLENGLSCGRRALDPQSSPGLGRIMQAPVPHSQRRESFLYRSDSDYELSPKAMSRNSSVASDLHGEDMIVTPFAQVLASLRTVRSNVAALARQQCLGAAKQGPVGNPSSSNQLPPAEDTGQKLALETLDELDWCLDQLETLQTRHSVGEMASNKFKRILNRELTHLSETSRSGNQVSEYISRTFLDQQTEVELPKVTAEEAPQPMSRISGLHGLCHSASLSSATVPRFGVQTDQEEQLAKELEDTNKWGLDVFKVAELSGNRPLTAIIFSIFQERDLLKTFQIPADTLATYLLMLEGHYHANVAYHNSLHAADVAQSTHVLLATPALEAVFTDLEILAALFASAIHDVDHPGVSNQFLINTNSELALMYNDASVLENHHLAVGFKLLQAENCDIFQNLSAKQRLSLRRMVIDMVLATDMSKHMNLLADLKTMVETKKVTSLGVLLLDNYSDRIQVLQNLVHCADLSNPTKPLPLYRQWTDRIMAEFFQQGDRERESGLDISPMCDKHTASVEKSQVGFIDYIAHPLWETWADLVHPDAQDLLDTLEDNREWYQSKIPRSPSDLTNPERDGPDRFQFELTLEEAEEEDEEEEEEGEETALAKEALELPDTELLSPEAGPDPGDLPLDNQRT
- experimental.protocol: PDE4C1 Scintillation Proximity Assay (SPA), inhibition of enzyme activity
- Format: biochemical
- measurement.setup: Table 9, geometric mean of 2-9 determinations unless otherwise indicated, read-out: Human PDE4C FL
- Experimental: The PDE4A, PDE4B, PDE4C and PDE4D binding affinity for the compounds of the present invention was determined utilizing the following biological assay(s): The recombinant Bacmid was isolated and used to transfect insect cells to generate a viral stock. To generate cell paste for purification, insect cells were infected with the virus stock and cells were harvested 72 hours after infection. […] Fractions were analyzed using SDS-PAGE Coomassie blue staining and pooled based on purity. […]
measurement.kind: pIC50
Please keep in mind that pIC50 is minus log10 of the molar concentration; only the number is needed.

Recorded pIC50, per entry:
structure.smiles: O=C1c2c(-c3ccc(F)cc3)c3ncccc3n2CCN1C1CC1
pIC50: 7.09
//
structure.smiles: Cc1ccc(-c2c3ncccc3n3ccn(C4CC4)c(=O)c23)cc1
pIC50: 8.18

Consider O=C1c2c(-c3cnc4ccoc4c3)c3ncccc3n2CCN1C1CC1 . Its measured pIC50 is 7.43

Consider Cc1ccc(-c2c3n(c4cccnc24)CCN(C2CC2)C3=O)c(C)c1 . Its measured pIC50 is 7.86

Consider N#Cc1cc(-c2c3n(c4cccnc24)CCN(C2CC2)C3=O)ccc1Cl . Its measured pIC50 is 8.54

Consider O=C1c2c(-c3ccc(Cl)c(F)c3)c3ncccc3n2CCN1C1CC1 . Its measured pIC50 is 8.84
